Reference source: patent US20240158370A1

Would you kindly list DC50 for each of these compounds?
biological target: GSPT1 (Homo sapiens, UniProt P15170+Q96SW2); assay: HiBiT degradation assay, GSPT1, Procedure A; type: cell-based; design: HiBit-GSPT1 KI HEK293(LgBit) Cells; host or cells: HEK293(LgBit) knock-in cells; conditions: six hours incubation
Sequence (P15170 whole entry): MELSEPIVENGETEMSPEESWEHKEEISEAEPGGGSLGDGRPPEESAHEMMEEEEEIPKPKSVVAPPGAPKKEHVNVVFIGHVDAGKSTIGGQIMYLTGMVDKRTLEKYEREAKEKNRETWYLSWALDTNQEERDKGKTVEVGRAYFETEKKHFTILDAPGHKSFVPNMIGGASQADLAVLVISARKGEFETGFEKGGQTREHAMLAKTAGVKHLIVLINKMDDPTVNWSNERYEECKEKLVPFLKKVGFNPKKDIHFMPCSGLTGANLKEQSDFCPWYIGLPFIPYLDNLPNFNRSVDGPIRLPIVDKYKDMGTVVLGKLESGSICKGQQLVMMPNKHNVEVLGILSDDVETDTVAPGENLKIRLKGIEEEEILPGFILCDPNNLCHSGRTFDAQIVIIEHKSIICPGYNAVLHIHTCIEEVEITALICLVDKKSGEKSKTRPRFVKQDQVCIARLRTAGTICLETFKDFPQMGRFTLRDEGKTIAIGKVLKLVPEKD
Sequence (Q96SW2 whole entry): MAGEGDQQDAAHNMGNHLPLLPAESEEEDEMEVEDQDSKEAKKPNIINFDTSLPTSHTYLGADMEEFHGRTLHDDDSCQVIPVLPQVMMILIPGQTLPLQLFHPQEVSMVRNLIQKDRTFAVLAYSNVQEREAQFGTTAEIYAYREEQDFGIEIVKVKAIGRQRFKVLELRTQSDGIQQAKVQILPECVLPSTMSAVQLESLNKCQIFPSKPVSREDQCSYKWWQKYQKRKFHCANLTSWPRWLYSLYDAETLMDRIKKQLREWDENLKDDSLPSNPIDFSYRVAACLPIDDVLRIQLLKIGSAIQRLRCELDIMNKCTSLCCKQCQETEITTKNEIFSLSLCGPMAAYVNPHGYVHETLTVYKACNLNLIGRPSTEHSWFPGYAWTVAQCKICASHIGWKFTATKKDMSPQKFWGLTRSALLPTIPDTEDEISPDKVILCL
Sequence (Q16531 whole entry partner): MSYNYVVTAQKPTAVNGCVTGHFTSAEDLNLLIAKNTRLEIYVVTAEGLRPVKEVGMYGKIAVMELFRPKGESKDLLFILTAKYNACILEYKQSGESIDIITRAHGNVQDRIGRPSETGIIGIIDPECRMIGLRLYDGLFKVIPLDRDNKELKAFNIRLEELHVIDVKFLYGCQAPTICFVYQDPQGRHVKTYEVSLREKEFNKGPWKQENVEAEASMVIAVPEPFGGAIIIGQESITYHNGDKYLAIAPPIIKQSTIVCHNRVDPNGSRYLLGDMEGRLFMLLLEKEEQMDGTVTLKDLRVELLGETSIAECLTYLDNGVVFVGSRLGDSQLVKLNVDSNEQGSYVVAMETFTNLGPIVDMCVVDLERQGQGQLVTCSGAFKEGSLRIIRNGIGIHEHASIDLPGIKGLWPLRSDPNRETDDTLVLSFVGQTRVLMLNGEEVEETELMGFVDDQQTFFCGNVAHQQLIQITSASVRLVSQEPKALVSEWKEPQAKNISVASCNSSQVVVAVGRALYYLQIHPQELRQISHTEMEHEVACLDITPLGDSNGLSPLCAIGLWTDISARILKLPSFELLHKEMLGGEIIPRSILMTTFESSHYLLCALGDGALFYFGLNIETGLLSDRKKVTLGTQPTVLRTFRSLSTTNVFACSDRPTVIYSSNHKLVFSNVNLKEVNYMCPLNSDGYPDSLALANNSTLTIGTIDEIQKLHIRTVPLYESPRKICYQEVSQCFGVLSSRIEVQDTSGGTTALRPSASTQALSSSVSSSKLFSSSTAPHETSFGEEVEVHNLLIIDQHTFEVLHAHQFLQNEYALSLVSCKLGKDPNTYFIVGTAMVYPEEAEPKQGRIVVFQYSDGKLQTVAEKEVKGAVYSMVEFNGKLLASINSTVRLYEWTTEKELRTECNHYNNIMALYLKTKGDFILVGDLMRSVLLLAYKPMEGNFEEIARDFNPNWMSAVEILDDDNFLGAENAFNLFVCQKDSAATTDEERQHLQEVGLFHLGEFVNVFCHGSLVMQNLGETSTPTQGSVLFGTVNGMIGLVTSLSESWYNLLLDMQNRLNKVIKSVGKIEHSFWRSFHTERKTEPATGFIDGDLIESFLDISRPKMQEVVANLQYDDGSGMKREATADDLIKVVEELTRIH

So for Cn1cnc(-c2ccc3c(c2)CN(C2CCC(=O)NC2=O)C3=O)c1-c1cccc(C(F)F)c1 (centres unmarked) , the logged DC50 turned out to be ≥ 25 nM

// DC50 value for O=C1CCC(N2Cc3cc(-c4ncoc4-c4ccccc4)ccc3C2=O)C(=O)N1 (centres unmarked) : < 25 nM

Just so you know, measured DC50 for Cn1cnc(-c2ccc3c(c2)CN(C2CCC(=O)NC2=O)C3=O)c1-c1ccc(C2(C#N)CC2)cc1 (centres unmarked) came out at ≥ 25 nM

The value of DC50 measured for the compound Cc1cc(-c2c(-c3ccc4c(c3)CN(C3CCC(=O)NC3=O)C4=O)ncn2C)ccc1Cl (centres unmarked) turned out to be < 25 nM

DC50 reading for COc1ccc(-c2c(-c3ccc4c(c3)CN(C3CCC(=O)NC3=O)C4=O)ncn2C)c(C)c1 (centres unmarked) : < 25 nM

// Cn1ncc(-c2ccc3c(c2)CN(C2CCC(=O)NC2=O)C3=O)c1-c1cccc(N)c1 (centres unmarked) : DC50 value = ≥ 25 nM

// Cn1cc(-c2c(-c3ccc4c(c3)CN(C3CCC(=O)NC3=O)C4=O)ncn2C)cn1 (centres unmarked) : DC50 value = ≥ 25 nM

The recorded DC50 for CN(C)C(=O)c1ccc(-c2c(-c3ccc4c(c3)CN(C3CCC(=O)NC3=O)C4=O)cnn2C)cc1 (centres unmarked) is ≥ 25 nM

---

Please go through the items and note down their DC50.
target: CK1α (Homo sapiens, UniProt P48729+Q96SW2); construct: CSNK1A1-HiBit KI HEK293(LgBit) Cells; host or cells: HEK293(LgBit) knock-in cells; experiment: HiBiT degradation assay, CK1α, Procedure A; type: cell-based; details: six hours
Sequence (P48729 whole entry, one chain of several): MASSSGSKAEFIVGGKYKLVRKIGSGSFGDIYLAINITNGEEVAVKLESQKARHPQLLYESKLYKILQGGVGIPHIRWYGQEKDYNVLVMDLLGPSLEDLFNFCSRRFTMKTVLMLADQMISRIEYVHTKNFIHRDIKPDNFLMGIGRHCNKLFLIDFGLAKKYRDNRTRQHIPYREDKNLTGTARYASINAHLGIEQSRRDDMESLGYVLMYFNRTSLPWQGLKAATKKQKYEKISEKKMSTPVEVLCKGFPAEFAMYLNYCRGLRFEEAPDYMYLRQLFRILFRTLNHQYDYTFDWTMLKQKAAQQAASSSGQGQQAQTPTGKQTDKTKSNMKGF

# DC50 (compound: O=C1CCC(N2Cc3cc(-c4nc(-c5ccccc5)n(C(F)F)n4)ccc3C2=O)C(=O)N1 (centres unmarked) ) is < 25 nM

Record Cn1ncc(-c2ccc3c(c2)CN(C2CCC(=O)NC2=O)C3=O)c1-c1ccn(C)c(=O)c1 (centres unmarked) . Reported DC50: ≥ 25 nM

For Cn1cc(-c2ccc3c(c2)CN(C2CCC(=O)NC2=O)C3=O)nc1-c1cccc(OCc2ccccc2)c1 (centres unmarked) the compound record lists DC50 as < 25 nM

DC50 reading for Cn1cc(-c2ccc3c(c2)CN(C2CCC(=O)NC2=O)C3=O)nc1-c1cccc(C#N)c1 (centres unmarked) : < 25 nM

Record Cn1ncc(-c2ccc3c(c2)CN(C2CCC(=O)NC2=O)C3=O)c1-c1ccc2cnn(C)c2c1 (centres unmarked) , field DC50: < 25 nM

Lab note: measured DC50 of O=C1CCC(N2Cc3cc(-c4cn(C(F)F)nc4-c4cncnc4)ccc3C2=O)C(=O)N1 (centres unmarked) was ≥ 25 nM

The compound identified as COc1ccc(-c2nc(-c3ccc4c(c3)CN(C3CCC(=O)NC3=O)C4=O)cn2C)cc1 (centres unmarked) registered its DC50 at < 25 nM

Entry under test: Cn1cc(-c2ccc3c(c2)CN(C2CCC(=O)NC2=O)C3=O)nc1-c1cccc(O)c1 (centres unmarked) . Its DC50 was ≥ 25 nM
